system: Serine/threonine-protein kinase PLK1 (Homo sapiens) (UniProt P53350)
Sequence (P53350 whole entry, looked up): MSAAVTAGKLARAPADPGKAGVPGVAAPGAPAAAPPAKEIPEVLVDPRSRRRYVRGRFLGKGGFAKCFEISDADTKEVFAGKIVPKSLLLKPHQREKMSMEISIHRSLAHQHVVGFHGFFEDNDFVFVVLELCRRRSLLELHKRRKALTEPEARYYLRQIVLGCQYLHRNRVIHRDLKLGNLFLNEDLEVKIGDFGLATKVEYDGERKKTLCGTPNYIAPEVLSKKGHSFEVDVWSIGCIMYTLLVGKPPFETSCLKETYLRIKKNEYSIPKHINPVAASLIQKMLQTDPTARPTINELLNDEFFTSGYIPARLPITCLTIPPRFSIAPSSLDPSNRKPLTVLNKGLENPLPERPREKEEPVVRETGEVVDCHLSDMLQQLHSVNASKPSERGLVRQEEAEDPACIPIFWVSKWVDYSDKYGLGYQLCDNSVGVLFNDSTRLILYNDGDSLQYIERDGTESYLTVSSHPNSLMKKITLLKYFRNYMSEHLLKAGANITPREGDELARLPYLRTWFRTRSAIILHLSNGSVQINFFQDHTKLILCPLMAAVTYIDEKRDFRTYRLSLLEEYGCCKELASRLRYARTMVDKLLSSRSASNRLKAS
protocol.notes: human PLK1 kinase inhibitors, primary screen, biochemical, TR-FRET (AID 619);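 also: 0% = DMSO max control and 100% = H-89 dihydrochloride min control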
run.conditions: recombinant PLK1 kinase, TR-FRET peptide phosphorylation; at 10 µM; stronger effect = higher value
The whole screen tested about 97,000 compounds, of which about 520 (0.54%) were called active. Only a selection was taken, and actives are over-represented in it overall.
Listed below: inhibition values for each entry.
Numeric answer only, unit % assumed.

See these solved cases before continuing.
compound	quantity.kind	endpoint.unit	reported.value
Cc1ccc(S(=O)(=O)NCC(=O)N2CCN(c3ccccn3)CC2)cc1	inhibition	%	-12
CCc1ccc2c(c1)cc(CN(C(=S)Nc1ccccc1Cl)C1CC1)c1nnnn12	inhibition	%	-115
C/C(=N/NC(=O)c1ccc(NC(=O)c2ccc(F)cc2)cc1)c1ccccc1	inhibition	%	-9.91
CCN(CC)C(=O)CSc1nnc(C2CCCCC2)o1	inhibition	%	-6.95
CC(=O)c1cn(CCCCCCCCCCn2cc(C(C)=O)c(=O)[nH]c2=O)c(=O)[nH]c1=O	inhibition	%	-6.55
CCOC(=O)N1CCC(N(CCOC)C(=O)Nc2ccc(C)c(C)c2)CC1	inhibition	%	-7.06
Cc1ccc2nc(SC(C)C(=O)NCc3ccco3)[nH]c2c1 (stereo not drawn)	inhibition	%	1.32
O=C(Cn1cncn1)N/N=C/c1c2ccccc2cc2ccccc12	inhibition	%	-1.05

Using the record for `Cc1nc2cc(NC(=O)CSc3nc4c(C)cccc4cc3C#N)ccc2s1` , state its measured inhibition.
-34.1

Give the reported value of inhibition for this record: `CN(Cc1ccccc1)C(=O)COc1ccccc1`
-6.87

Consider the compound `Cc1ccc(Cc2cnc(NC(=O)/C(C#N)=C/c3ccc(-c4cccc([N+](=O)[O-])c4)o3)s2)cc1` and give its recorded inhibition.
-5.56

Give recorded inhibition. `CCC(=O)NNc1cc(=O)c2c(=O)n(C)c(=O)n(C)c2[nH]1`
-9.06

Given the compound `Cc1onc(-c2ccccc2)c1C(=O)Nc1ccccc1C#N` , write its reported inhibition.
66.8

Specify inhibition for `CCOC(=O)N1CCN(Cc2nc(N)nc(Nc3ccc(C)cc3)n2)CC1` and stop.
-13.1

Item CCOC(=O)C1=C(C)NC2=C(C(=O)CC(C)(C)C2)C1c1ccsc1 (stereo not drawn) : provide inhibition
-9.3

Input `COc1ccc(CN(Cc2ccco2)S(=O)(=O)c2ccc(S(=O)(=O)N3CCCC3)cc2)cc1` , output reported inhibition.
-1.36

Determine its reported inhibition: CCOc1ccccc1C1CC(c2ccc(Cl)cc2)Nc2nc(N)nn21 (stereo not drawn)
-12.7

State its inhibition for this compound: `Cc1ccc(S(=O)(=O)N(C)CC(=O)NC2CCCC2)cc1`
-5.15

----------
system: Serine/threonine-protein kinase PLK1 (Homo sapiens) (UniProt P53350)
protocol.notes: human PLK1 kinase inhibitors, primary screen, biochemical, TR-FRET (AID 619);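 also: 0% = DMSO max control and 100% = H-89 dihydrochloride min control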
run.conditions: recombinant PLK1 kinase, TR-FRET peptide phosphorylation; at 10 µM; stronger effect = higher value
Screen size: about 97,000 compounds; about 520 (0.54%) were called active. What follows is part of a selection rich in actives, with near analogues and random picks from the rest.
quantity.kind: inhibition (%)
# output: bare number, implied unit %

compound	endpoint.unit	inhibition
COc1ccc(-c2nc(CS(=O)CC(=O)NCc3ccccn3)c(C)o2)cc1 (stereo not given)	%	-9.42
Cc1cccc(N2C(=O)SC(N(CC(=O)O)c3cccc(C)c3)C2=O)c1 (stereo not given)	%	68.7
CCOC(=O)c1ccc2c(c1)nc(SCC(=O)NC(C)C)n2CC	%	-12.9
COc1ccc(-n2cnc3cc(NCc4ccco4)ccc32)cc1	%	-1.91
CCCC(=O)n1nc(-c2ccccc2)nc1N	%	-4.99
Cn1nc(C(F)(F)F)c(C(=O)Nc2cccc(C(F)(F)F)c2)c1SCc1ccc(Cl)cc1	%	-9.84
CCC(C)(C)n1nnnc1CN1CCN(c2nc3ccc(C)cc3cc2C#N)CC1	%	-9.44
COC(=O)C1C(=O)NCC1c1ccc(C)cc1 (stereo not given)	%	-7.84

Would you please give the reported inhibition of Cc1ccc(N2C(=O)C(Cc3ccccc3)NC2=S)cc1 (stereo not given) with Serine/threonine-protein kinase PLK1 (Homo sapiens) (UniProt P53350)?
-4.76

// output inhibition; input `O=c1cc(C(F)(F)F)[nH]c(=O)n1C1CCCCC1` ; system Serine/threonine-protein kinase PLK1 (Homo sapiens) (UniProt P53350)
-12.1
